For each record, write down the corresponding inhibition.
- system_name: Glucose transporter (Leishmania mexicana) (UniProt O61059)
- experiment_notes: ST_JUDE_LEISH: Cytotoxicity at 2uM final concentration against transgenic Leishmania Mexicana promastigotes LmGT2 that are glucose transport deficient and complemented with the L. Mexicana glucose transporter 2. Activity is measured by DNA content using SYBR green in vitro
- Format: functional
# unit: % | format: bare number

inhibition measured on O=C(NCCCc1ccccc1)c1ccc(O)c(-c2cc(Cl)cc(Cl)c2)c1 = 3.61

inhibition measured on CCOc1ccc(C=CC(=O)Nc2ccc3nc(N4CCOCC4)cc(C)c3c2)cc1OC = 4.75

inhibition measured on CC(C)c1cccc(OCC2CCN(c3ccc(C(=O)Nc4ccccc4)cn3)CC2)c1 = 9.04

###

For each record, write down the corresponding inhibition.
- system_name: Solute carrier family 2, facilitated glucose transporter member 1 (Homo sapiens)
- experiment_notes: ST_JUDE_LEISH: Cytotoxicity at 2uM final concentration against transgenic Leishmania Mexicana promastigotes LmGLUT1 that are glucose transport deficient and complemented with the human glucose transporter GLUT1. Activity is measured by DNA content using SYBR green in vitro
- Assay type: functional
# unit: % | format: bare number

inhibition measured on COc1ccc2nc(SC(C)C(=O)c3c[nH]c4ccccc34)[nH]c2c1 (configuration not stated) = 2.5

inhibition measured on COc1ccc(C2N=C(N)N=C(N)N2OCc2ccccc2)cc1OC (configuration not stated) = 0.67

inhibition measured on CNC(=O)c1c(NC(=O)c2cccs2)sc2c1CCCC2 = 1.2

inhibition measured on Cc1cnc(C(=O)Nc2cccc(-c3csc(-c4nc5ccccc5[nH]4)c3)c2)cn1 = 5.41

inhibition measured on COc1cc2c(=O)c(Cc3ccc(Cl)cc3)c(C)[nH]c2cc1F = 2.09

inhibition measured on CC1(C)CCC(C)(C)c2c1ccc(C1CCN(CCCCNC(=O)c3ccc(-c4ccc(C#N)cc4)cc3)CC1)c2O = 0.66

inhibition measured on COc1ccc2nccc([C@@H](O)CN3CCC(NCc4nc5c(cc4Cl)OCC(=O)N5)C(F)C3)c2c1 (some centres not stated) = 1.37

###

For each record, write down the corresponding inhibition.
- system_name: Glucose transporter (Leishmania mexicana) (UniProt O61059)
- experiment_notes: ST_JUDE_LEISH: Cytotoxicity at 2uM final concentration against transgenic Leishmania Mexicana promastigotes LmGT2 that are glucose transport deficient and complemented with the L. Mexicana glucose transporter 2. Activity is measured by DNA content using SYBR green in vitro
- Type: functional
# unit: % | format: bare number

Per the reported Glucose transporter (Leishmania mexicana) (UniProt O61059) data, Cc1c(Br)cc2nc(-c3ccc(C(=O)NC4CCN(Cc5ccccc5)CC4)cc3)[nH]c2c1C has inhibition of 0.51

Per the reported Glucose transporter (Leishmania mexicana) (UniProt O61059) data, CCOC(=O)c1c(SCc2cccc(F)c2F)[nH]c2ccccc2c1=O has inhibition of 1.97

Per the reported Glucose transporter (Leishmania mexicana) (UniProt O61059) data, FC(F)(F)c1cccc(Nc2nc3nonc3nc2NC2C3CC4CC(C3)CC2C4)c1 (centres undefined) has inhibition of 0.47

Per the reported Glucose transporter (Leishmania mexicana) (UniProt O61059) data, COc1ccc2nc(SC(C)C(=O)c3c[nH]c4ccccc34)[nH]c2c1 (centres undefined) has inhibition of 2.35

Per the reported Glucose transporter (Leishmania mexicana) (UniProt O61059) data, CN1CCC[C@H]1COc1ccc(CN2CC[C@H](NC(=O)c3ccc(Cl)c(Cl)c3)C2)cc1Br has inhibition of 1.89

Per the reported Glucose transporter (Leishmania mexicana) (UniProt O61059) data, Cc1c(C)c2c(c(C)c1O)CC[C@](C)(C(=O)N1CCC(CCN3CCC(c4c[nH]c5ccccc45)CC3)CC1)O2 has inhibition of -0.6

Per the reported Glucose transporter (Leishmania mexicana) (UniProt O61059) data, COc1ccc(OC(C)CNC(=O)c2cc([N+](=O)[O-])ccc2-c2ccc(OC)cc2)cc1 (centres undefined) has inhibition of -4.55

Per the reported Glucose transporter (Leishmania mexicana) (UniProt O61059) data, Cc1ccn2c(C(=O)N3CCN(c4cccc5c4nc(-c4ccoc4)n5Cc4ccccn4)CC3)c(C)nc2c1 has inhibition of -0.49

Per the reported Glucose transporter (Leishmania mexicana) (UniProt O61059) data, N#Cc1cccc(C(=O)Nc2ccc(-c3nc4ccccc4[nH]3)cc2)c1 has inhibition of -0.95

Per the reported Glucose transporter (Leishmania mexicana) (UniProt O61059) data, COc1ccc(C(=O)Nc2ccc(-c3ccc([N+](=O)[O-])cc3)cc2)cc1CCCN(C)C has inhibition of 2.45

Per the reported Glucose transporter (Leishmania mexicana) (UniProt O61059) data, Cc1noc(C)c1-c1cccc(CNCc2cccc(-c3cccc(-c4nc5cc(C(F)(F)F)ccc5[nH]4)c3)c2)c1 has inhibition of 0.61

Per the reported Glucose transporter (Leishmania mexicana) (UniProt O61059) data, CC(=O)Nc1ccc(CN2CCC(NC(=O)c3cc(-c4ccc(N(C)C)cc4)cs3)C2)cc1 (centres undefined) has inhibition of 4.39

Per the reported Glucose transporter (Leishmania mexicana) (UniProt O61059) data, COCCN1CCN(Cc2ccc(-c3cccc(-c4nc5ccccc5[nH]4)c3)cc2)CC1 has inhibition of -2.88

Per the reported Glucose transporter (Leishmania mexicana) (UniProt O61059) data, O=c1cc(NCC2(CNCc3cn(Cc4ccccc4)c4ccccc34)CCCCC2)[nH]c2ccccc12 has inhibition of 5.44
